Recorded Cell Viability, one value per entry.
test system: Colon cancer organoid; experiment: Optimized Dual-Glo assay to identify co-culture induced drug vulnerabilities using donated chemical probes and chemogenomics kinase set in O14 CRC organoid and F14 CAF mono and co-culture. […] Cell viability is reported both mono and co-culture models.; type: functional, Homo sapiens; set-up: dose or concentration left out as unconfirmed; details: Culture type Mono-Culture; Transduced with Renilla-dsRed lentivirus

compound: Cl.O=C([C@@H](Cc1cccc(C(F)(F)F)c1)NS(=O)(=O)c1cc(F)c2c(c1)CCNC2)N1CCCC1
tested target: Colon cancer organoid
Cell Viability: 109.686%
--
compound: CCCCN(CCCC)C(=O)CN1C[C@@H](c2cc(OC)c3c(c2)OCO3)[C@H](C(=O)O)[C@H]1CC(C)(C)CCC
tested target: Colon cancer organoid
Cell Viability: 109.859%
--
compound: O=C(Nc1cccnn1)N1CCC(=Cc2cccc(Oc3ccc(C(F)(F)F)cn3)c2)CC1
tested target: Colon cancer organoid
Cell Viability: 77.8588%
--
compound: CO[C@H]1CC[C@H](CNc2ccc(S(=O)(=O)NC(=O)c3ccc(N4CCN(CC5=C(c6ccc(Cl)cc6)CC(C)(C)CC5)CC4)cc3Oc3cnc4[nH]ccc4c3)cc2[N+](=O)[O-])CC1
tested target: Colon cancer organoid
Cell Viability: 87.836%
--
compound: CNc1nc(Nc2cnn([C@H]3CCN(C4COC4)C[C@@H]3F)c2Cl)ncc1C(F)(F)F
tested target: Colon cancer organoid
Cell Viability: 102.216%
--
compound: C[C@@H]1CCN(C(=O)CC#N)C[C@@H]1N(C)c1ncnc2[nH]ccc12.O=C(O)CC(O)(CC(=O)O)C(=O)O [TOFACITINIB CITRATE]
tested target: Colon cancer organoid
Cell Viability: 98.8919%
--
compound: CCCc1cc(C)[nH]c(=O)c1CNC(=O)c1cc(-c2ccnc(N3CCN(C)CC3)c2)cc2c1cnn2C(C)C
tested target: Colon cancer organoid
Cell Viability: 115.721%
--
compound: CNc1nc(-c2ccc3c(N)n[nH]c3c2)cc(N2C[C@@H](C(=O)NC3CCCCC3)CC[C@H]2C)n1
tested target: Colon cancer organoid
Cell Viability: 52.6977%
--
compound: COCc1nc2cnc3cc(-c4c(C)noc4C)c(OC[C@H]4CCNC4)cc3c2n1[C@H](C)c1ccccc1
tested target: Colon cancer organoid
Cell Viability: 175.876%
--
compound: C[C@H](NC(=O)c1cnc2n1[C@](C)(Cc1ccc(C#N)cc1)C(=O)N2c1cc(Cl)c(F)c(Cl)c1)C(=O)NC1(c2ccccn2)CC1
tested target: Colon cancer organoid
Cell Viability: 112.137%
--
compound: CN1CCN(c2ccc(-c3cccc(CN4CCOCC4)c3)cc2NC(=O)c2c[nH]c(=O)cc2C(F)(F)F)CC1
tested target: Colon cancer organoid
Cell Viability: 90.7791%
--
compound: CCn1c(-c2nc3cc(C(=O)N4CCCC(N)C4)ccc3n2C)cc2ccccc21.Cl (stereo not drawn)
tested target: Colon cancer organoid
Cell Viability: 100.943%
--
compound: CN1CCN(C(=O)C(C)(C)c2ccc(C(=O)Nc3cn4cc(-c5cc(C(C)(C)C)cc(C(C)(C)C)c5)ccc4n3)cc2)CC1
tested target: Colon cancer organoid
Cell Viability: 83.9103%
--
compound: Cn1cc(CNCC2CCN(c3ncc(C(=O)NO)cn3)CC2)c2ccccc21
tested target: Colon cancer organoid
Cell Viability: 72.0368%
--
compound: COc1cc(Nc2ncc3c(n2)-c2ccc(Cl)cc2C(c2c(F)cccc2OC)=NC3)ccc1C(=O)O
tested target: Colon cancer organoid
Cell Viability: 103.392%
--
compound: C[C@@H]1CN(c2cc(-c3nn(C)c4ccc(OC5(C)CC5)cc34)ncn2)C[C@H](C)O1
tested target: Colon cancer organoid
Cell Viability: 102.606%
--
compound: CC(C)Oc1ccc(-c2c[nH]cc2CN(C)CCO)cc1
tested target: Colon cancer organoid
Cell Viability: 99.1586%
--
compound: NS(=O)(=O)c1cc(NC(=O)Cc2ccccc2)ccc1Oc1cccc(Cl)c1
tested target: Colon cancer organoid
Cell Viability: 106.475%
--
compound: CN(C)C(=O)N1CC[C@H](NC2=Nc3cc(F)ccc3N(CC(F)F)c3ccc(Cl)cc32)C1
tested target: Colon cancer organoid
Cell Viability: 90.4728%
--
compound: CCC(=O)N1CCN(c2ccc(-n3c(=O)ccc4cnc5ccc(-c6cnc7ccccc7c6)cc5c43)cc2C(F)(F)F)CC1
tested target: Colon cancer organoid
Cell Viability: 15.03%
--
compound: CCN(Cc1ccc(Cl)cc1)c1ncc(C(=O)NCCCN2CCCC2=O)c(NC2CCCC2)n1
tested target: Colon cancer organoid
Cell Viability: 100.116%
--
compound: O=C(Nc1cccnc1)c1cc(-c2ccnc(F)c2)ccc1OCc1ccccc1
tested target: Colon cancer organoid
Cell Viability: 106.667%
--
compound: CCC(=O)N1CCOc2c(cc(-c3ccc(OC)c(OC)c3)cc2OCC2CCCN(C)C2)C1 (stereo not drawn)
tested target: Colon cancer organoid
Cell Viability: 112.054%
--
compound: Cn1nc(C(F)(F)F)cc1-c1cnc(N2CCc3cc(S(=O)(=O)Nc4c(F)cc(Cl)cc4F)cc(N4CCCC4=O)c32)nc1
tested target: Colon cancer organoid
Cell Viability: 79.7114%
--
compound: Cc1sc2c(c1C)C(c1ccc(Cl)cc1)=N[C@@H](CC(=O)OC(C)(C)C)c1nnc(C)n1-2
tested target: Colon cancer organoid
Cell Viability: 218.603%
--
compound: COc1cc2c(cc1-c1c(C)noc1C)ncc1[nH]c(=O)n([C@H](C)c3ccccn3)c12
tested target: Colon cancer organoid
Cell Viability: 208.742%
--
compound: O=C(Nc1cnc(Oc2ccc(F)cc2)nc1)N1CCc2ncccc2[C@@H]1c1ccc(F)cc1
tested target: Colon cancer organoid
Cell Viability: 105.629%
--
compound: CN(C)CCOc1ccc(-c2nc(-c3ccncc3)c(-c3ccc4c(c3)CC/C4=N\O)[nH]2)cc1
tested target: Colon cancer organoid
Cell Viability: 91.3736%
--
compound: N#CN1CC[C@@H](C(=O)Nc2nc3c(s2)CN(C(=O)CN=[N+]=[N-])CC3)C1
tested target: Colon cancer organoid
Cell Viability: 88.3695%
--
compound: N#CN1CC[C@H](C(=O)Nc2nc3c(s2)CN(C(=O)CN=[N+]=[N-])CC3)C1
tested target: Colon cancer organoid
Cell Viability: 88.8457%
--
compound: Cn1c(=O)[nH]c2cc(N3C(=O)c4cccc5c(CCCO)ccc(c45)C3=O)ccc21
tested target: Colon cancer organoid
Cell Viability: 99.5703%
--
compound: CC(=O)Nc1ncc(CN2CCC[C@H](Cc3cc(C)nc(C)c3)C2)s1
tested target: Colon cancer organoid
Cell Viability: 85.3088%
--
compound: CN(C)C(=O)/C(C#N)=C/c1ccc(-c2nc3cnc4[nH]ccc4c3n2C2CCCCC2)o1
tested target: Colon cancer organoid
Cell Viability: 91.5278%
